Some molecules, each annotated with its measured R3 luminescence readout.
Tested on: Clone #69 CHO-K1 cells expressing EA-NLS/NRS and GR-PL
assay_text: EFC assay in stable clone #69 (CHO-K1, EA-NLS/NRS and GR-PL) with or without RU486 pre-incubation
Type: cell-based
measurement_conditions: Med conc (nocodazole 3.33 μg/mL, colchicine 0.3 μ/mL, dexamethasone 100 μM, RU486 10 μM), overnight, vehicle pre-incubation
observation_type: R3 luminescence readout

1. CC#C[C@]1(O)CC[C@H]2[C@@H]3CCC4=CC(=O)CCC4=C3[C@@H](c3ccc(N(C)C)cc3)C[C@@]21C [RU486]    2249
2. COC(=O)Nc1nc2ccc(C(=O)c3cccs3)cc2[nH]1 [Nocodazole, nocodazole]    11457
3. COc1cc2c(c(OC)c1OC)-c1ccc(OC)c(=O)cc1[C@@H](NC(C)=O)CC2 [Colchicine, colchicine]    1073
4. C[C@@H]1C[C@H]2[C@@H]3CCC4=CC(=O)C=C[C@]4(C)[C@@]3(F)[C@@H](O)C[C@]2(C)[C@@]1(O)C(=O)CO [Dexamethasone, dexamethasone]    1290

----------
Readings of R3 luminescence readout for the listed molecules
System: Clone #69 CHO-K1 cells expressing EA-NLS/NRS and GR-PL
assay_text: EFC assay in stable clone #69 (CHO-K1, EA-NLS/NRS and GR-PL) with or without RU486 pre-incubation
Assay type: cell-based
measurement_conditions: High conc (nocodazole 10 μg/mL, colchicine 1 μ/mL, dexamethasone 300 μM, RU486 30 μM), overnight, vehicle pre-incubation
observation_type: R3 luminescence readout

1. C[C@@H]1C[C@H]2[C@@H]3CCC4=CC(=O)C=C[C@]4(C)[C@@]3(F)[C@@H](O)C[C@]2(C)[C@@]1(O)C(=O)CO [Dexamethasone, dexamethasone]    1934
2. COC(=O)Nc1nc2ccc(C(=O)c3cccs3)cc2[nH]1 [Nocodazole, nocodazole]    11616
3. CC#C[C@]1(O)CC[C@H]2[C@@H]3CCC4=CC(=O)CCC4=C3[C@@H](c3ccc(N(C)C)cc3)C[C@@]21C [RU486]    2657
4. COc1cc2c(c(OC)c1OC)-c1ccc(OC)c(=O)cc1[C@@H](NC(C)=O)CC2 [Colchicine, colchicine]    1323

----------
Test system: Clone #69 CHO-K1 cells expressing EA-NLS/NRS and GR-PL
assay_text: EFC assay in stable clone #69 (CHO-K1, EA-NLS/NRS and GR-PL) with or without RU486 pre-incubation
Type: cell-based
measurement_conditions: Low conc (nocodazole 1.11 μg/mL, colchicine 0.1 μ/mL, dexamethasone 30 μM, RU486 3.33 μM), overnight, vehicle pre-incubation
observation_type: Avg luminescence readout

1) COC(=O)Nc1nc2ccc(C(=O)c3cccs3)cc2[nH]1 [Nocodazole, nocodazole]    11575
2) COc1cc2c(c(OC)c1OC)-c1ccc(OC)c(=O)cc1[C@@H](NC(C)=O)CC2 [Colchicine, colchicine]    1136
3) C[C@@H]1C[C@H]2[C@@H]3CCC4=CC(=O)C=C[C@]4(C)[C@@]3(F)[C@@H](O)C[C@]2(C)[C@@]1(O)C(=O)CO [Dexamethasone, dexamethasone]    1258
4) CC#C[C@]1(O)CC[C@H]2[C@@H]3CCC4=CC(=O)CCC4=C3[C@@H](c3ccc(N(C)C)cc3)C[C@@]21C [RU486]    2416
